- Test system: Cryptococcus gattii species complex
- ASSAY_COMMENT: Antifungal activity against Cryptococcus gattii 196L/03 after 72 hrs by microdilution method
- Format: functional, Cryptococcus bacillisporus
- TEST_CONDITIONS: 196L/03, 72 h
Peptide text beside a SMILES is read from it. * marks the point of attachment. X1 = CCN(CC)c1ccc2cc(-n3cc(CCC(=O)*)nn3)c(=O)oc2c1; Pent4ynoyl = C#CCCC(=O)*
ATTRIBUTE_MEASURED: MIC (µM)

MOLECULE | OP | RECORDED_NUMBER
OC(Cn1cncn1)(Cn1cncn1)c1ccc(F)cc1F [FLUCONAZOLE] | = | 100
CCN(CC)c1ccc2cc(-n3cc(CCCO)nn3)c(=O)oc2c1 | > | 750
C#CCCC(=O)N[C@@H](CCCNC(=N)N)C(=O)N[C@@H](C)C(=O)N[C@@H](CCCCN)C(=O)N[C@@H](CCCNC(=N)N)C(=O)N[C@@H](CCCNC(=N)N)C(=O)N[C@@H](CCSC)C(=O)N[C@@H](CCC(N)=O)C(=O)N[C@@H](Cc1ccc(O)cc1)C(N)=O (Pent4ynoyl-RAKRRMQY-NH2) | > | 220
CCN(CC)c1ccc2cc(-n3cc(CCC(=O)N[C@@H](CCCNC(=N)N)C(=O)N[C@@H](C)C(=O)N[C@@H](CCCCN)C(=O)N[C@@H](CCCNC(=N)N)C(=O)N[C@@H](CCCNC(=N)N)C(=O)N[C@@H](CCSC)C(=O)N[C@@H](CCC(N)=O)C(=O)N[C@@H](Cc4ccc(O)cc4)C(N)=O)nn3)c(=O)oc2c1 (X1-RAKRRMQY-NH2) | = | 40
CCN(CC)c1ccc2cc(N=[N+]=[N-])c(=O)oc2c1 | > | 990

###

- Test system: Cryptococcus bacillisporus
- ASSAY_COMMENT: Antifungal activity against Cryptococcus gattii ATCC 32608 after 72 hrs by microdilution method
- Assay type: functional
- TEST_CONDITIONS: ATCC 32608, 72 h
Peptide text beside a SMILES is read from it. * marks the point of attachment. X1 = CCN(CC)c1ccc2cc(-n3cc(CCC(=O)*)nn3)c(=O)oc2c1; Pent4ynoyl = C#CCCC(=O)*

COMPOUND | UNIT_LABEL | OP | MIC
OC(Cn1cncn1)(Cn1cncn1)c1ccc(F)cc1F | µM | = | 50
C#CCCC(=O)N[C@@H](CCCNC(=N)N)C(=O)N[C@@H](C)C(=O)N[C@@H](CCCCN)C(=O)N[C@@H](CCCNC(=N)N)C(=O)N[C@@H](CCCNC(=N)N)C(=O)N[C@@H](CCSC)C(=O)N[C@@H](CCC(N)=O)C(=O)N[C@@H](Cc1ccc(O)cc1)C(N)=O (Pent4ynoyl-RAKRRMQY-NH2) | µM | > | 220
CCN(CC)c1ccc2cc(N=[N+]=[N-])c(=O)oc2c1 | µM | > | 990
CCN(CC)c1ccc2cc(-n3cc(CCCO)nn3)c(=O)oc2c1 | µM | > | 750
CCN(CC)c1ccc2cc(-n3cc(CCC(=O)N[C@@H](CCCNC(=N)N)C(=O)N[C@@H](C)C(=O)N[C@@H](CCCCN)C(=O)N[C@@H](CCCNC(=N)N)C(=O)N[C@@H](CCCNC(=N)N)C(=O)N[C@@H](CCSC)C(=O)N[C@@H](CCC(N)=O)C(=O)N[C@@H](Cc4ccc(O)cc4)C(N)=O)nn3)c(=O)oc2c1 (X1-RAKRRMQY-NH2) | µM | = | 90

###

- Test system: Cryptococcus neoformans
- ASSAY_COMMENT: Antifungal activity against Cryptococcus neoformans ATCC 24067 after 72 hrs by microdilution method
- Assay type: functional
- TEST_CONDITIONS: ATCC 24067, 72 h
Peptide text beside a SMILES is read from it. * marks the point of attachment. X1 = CCN(CC)c1ccc2cc(-n3cc(CCC(=O)*)nn3)c(=O)oc2c1; Pent4ynoyl = C#CCCC(=O)*

COMPOUND | OP | MIC (µM)
OC(Cn1cncn1)(Cn1cncn1)c1ccc(F)cc1F [FLUCONAZOLE] | = | 20
CCN(CC)c1ccc2cc(N=[N+]=[N-])c(=O)oc2c1 | > | 990
C#CCCC(=O)N[C@@H](CCCNC(=N)N)C(=O)N[C@@H](C)C(=O)N[C@@H](CCCCN)C(=O)N[C@@H](CCCNC(=N)N)C(=O)N[C@@H](CCCNC(=N)N)C(=O)N[C@@H](CCSC)C(=O)N[C@@H](CCC(N)=O)C(=O)N[C@@H](Cc1ccc(O)cc1)C(N)=O (Pent4ynoyl-RAKRRMQY-NH2) | > | 220
CCN(CC)c1ccc2cc(-n3cc(CCC(=O)N[C@@H](CCCNC(=N)N)C(=O)N[C@@H](C)C(=O)N[C@@H](CCCCN)C(=O)N[C@@H](CCCNC(=N)N)C(=O)N[C@@H](CCCNC(=N)N)C(=O)N[C@@H](CCSC)C(=O)N[C@@H](CCC(N)=O)C(=O)N[C@@H](Cc4ccc(O)cc4)C(N)=O)nn3)c(=O)oc2c1 (X1-RAKRRMQY-NH2) | = | 90
CCN(CC)c1ccc2cc(-n3cc(CCCO)nn3)c(=O)oc2c1 | > | 750
